Molecular target: human PI3Kα (Homo sapiens (Human), UniProt P42336)
Sequence (P42336 whole entry): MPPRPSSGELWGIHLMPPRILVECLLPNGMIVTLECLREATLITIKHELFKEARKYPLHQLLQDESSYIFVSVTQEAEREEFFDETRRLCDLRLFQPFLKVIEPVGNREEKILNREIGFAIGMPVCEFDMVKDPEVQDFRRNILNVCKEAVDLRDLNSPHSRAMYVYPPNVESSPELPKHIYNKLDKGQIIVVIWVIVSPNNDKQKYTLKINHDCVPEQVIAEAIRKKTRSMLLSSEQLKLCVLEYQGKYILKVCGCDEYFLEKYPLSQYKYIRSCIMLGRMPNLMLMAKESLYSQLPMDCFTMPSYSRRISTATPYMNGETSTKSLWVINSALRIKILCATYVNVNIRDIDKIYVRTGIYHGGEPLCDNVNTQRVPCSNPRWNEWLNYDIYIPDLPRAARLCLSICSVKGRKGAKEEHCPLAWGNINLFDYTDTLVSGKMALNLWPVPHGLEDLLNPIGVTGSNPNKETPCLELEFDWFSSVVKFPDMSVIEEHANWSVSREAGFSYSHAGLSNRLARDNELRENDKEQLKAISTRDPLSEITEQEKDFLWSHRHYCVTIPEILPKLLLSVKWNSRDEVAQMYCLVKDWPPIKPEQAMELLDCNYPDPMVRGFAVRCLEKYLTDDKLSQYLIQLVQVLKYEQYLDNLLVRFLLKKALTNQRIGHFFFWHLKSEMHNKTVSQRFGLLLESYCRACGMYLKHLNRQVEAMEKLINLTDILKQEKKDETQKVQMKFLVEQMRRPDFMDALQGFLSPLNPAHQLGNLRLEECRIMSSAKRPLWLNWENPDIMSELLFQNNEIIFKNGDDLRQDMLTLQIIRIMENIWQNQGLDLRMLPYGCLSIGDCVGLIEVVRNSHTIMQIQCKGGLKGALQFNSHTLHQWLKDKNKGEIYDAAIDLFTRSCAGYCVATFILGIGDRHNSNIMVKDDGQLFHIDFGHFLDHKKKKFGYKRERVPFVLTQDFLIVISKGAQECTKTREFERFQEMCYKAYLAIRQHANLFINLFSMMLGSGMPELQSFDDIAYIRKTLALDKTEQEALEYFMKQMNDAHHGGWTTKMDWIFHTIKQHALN
Sequence (P27986 whole entry partner): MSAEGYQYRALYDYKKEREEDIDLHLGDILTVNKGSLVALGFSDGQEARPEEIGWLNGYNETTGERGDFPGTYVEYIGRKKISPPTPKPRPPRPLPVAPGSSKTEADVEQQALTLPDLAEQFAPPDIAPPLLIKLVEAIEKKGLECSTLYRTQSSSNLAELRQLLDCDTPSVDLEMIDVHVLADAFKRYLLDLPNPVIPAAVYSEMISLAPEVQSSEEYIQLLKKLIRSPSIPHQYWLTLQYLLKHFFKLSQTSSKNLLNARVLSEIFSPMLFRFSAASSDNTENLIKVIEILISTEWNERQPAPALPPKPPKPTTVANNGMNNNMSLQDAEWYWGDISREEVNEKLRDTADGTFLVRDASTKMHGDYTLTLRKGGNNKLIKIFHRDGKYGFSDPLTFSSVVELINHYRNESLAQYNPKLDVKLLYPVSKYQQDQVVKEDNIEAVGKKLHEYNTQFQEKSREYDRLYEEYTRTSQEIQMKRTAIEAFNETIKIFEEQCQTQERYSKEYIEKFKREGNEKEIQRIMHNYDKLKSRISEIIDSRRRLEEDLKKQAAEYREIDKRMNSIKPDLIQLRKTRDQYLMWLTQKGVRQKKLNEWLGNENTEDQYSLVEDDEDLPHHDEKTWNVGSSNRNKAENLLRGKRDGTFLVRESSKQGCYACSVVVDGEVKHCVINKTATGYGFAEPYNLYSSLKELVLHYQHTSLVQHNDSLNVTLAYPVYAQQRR
Experiment: Human PI3Kα activity test (luciferin/luciferase ATP consumption, KinaseGlo)
Assay type: biochemical
Conditions: PI3Kα (p110α/p85α), 50 μM PIP2, 2 μM ATP, 90 minutes; read-out: IC50 Human PI3Kα
Quantity Measured: pIC50
Quick note: pIC50 values are minus log10 of concentrations in mol/L.

{"columns": ["Compound", "pIC50"],
 "data": [
  ["CC(C)(O)CCN1c2nc(N3C[C@@H]4C[C@H]3CO4)cc(=O)n2CC[C@H]1C(F)(F)F [Compound 50]", 5.37]
]}

For the compound C[C@@]1(C(F)(F)F)Cn2c(nc(N3CC4CCC(C3)O4)cc2=O)N1CCCc1ccccc1 [Compound 77] , report pIC50.
6.09

For the compound O=C(CN1c2nc(N3C[C@@H]4C[C@H]3CO4)cc(=O)n2CC[C@H]1C(F)(F)F)C1CC1 [Compound 67] , report pIC50.
5.40

Values were extracted from patent US9321790B2.
